system: non-CF clinical isolates of P. aeruginosa; assay: MIC vs non-CF clinical isolates of P. aeruginosa; format: cell-based; conditions: Pseudomonas aeruginosa, P. aer 27853; MIC key class
Readout Type: MIC

{"Compound": "C[C@@H](O)[C@H](NC(=O)c1ccc(C#Cc2ccccc2)cc1)C(=O)NO [Example 12]", "MIC": "< 6.25 µg/mL"}

Query block: MIC of C[C@@H](O)[C@H](NC(=O)c1ccc(-c2ccc(Br)cc2)cc1)C(=O)NO [Example 315] on non-CF clinical isolates of P. aeruginosa?
Result block: < 6.25 µg/mL

Query block: Quick check: MIC on non-CF clinical isolates of P. aeruginosa, item C[C@@H](O)[C@H](NC(=O)c1ccc(C#CC#Cc2ccc(NC(=O)CNc3ccccc3)cc2)cc1)C(=O)NO [Example 777] ?
Result block: < 6.25 µg/mL

* * *

test system: Proteus mirabilis; assay: MIC vs enteric organisms: Proteus mirabilis; format: cell-based; details: P. mir., MIC key class
Reported MIC values for a set of compounds

// solved cases for MIC follow
{"Compound": "NC[C@H](NC(=O)c1ccc(C#Cc2ccccc2)cc1)C(=O)NO [Example 366]", "Readout Type": "MIC", "Value Reported": "< 6.25 µg/mL"}
{"Compound": "NC[C@H](NC(=O)c1ccc(C#CC#Cc2ccccc2)cc1)C(=O)NO [Example 481]", "Readout Type": "MIC", "Value Reported": "< 6.25 µg/mL"}
{"Compound": "C[C@@H](O)[C@H](NC(=O)c1ccc(C#CC#Cc2ccc(NC(=O)CNc3ccccn3)cc2)cc1)C(=O)NO [Example 801]", "Readout Type": "MIC", "Value Reported": "< 6.25 µg/mL"}

Query block: Reported MIC, compound C[C@@H](O)[C@H](NC(=O)c1ccc(-c2ccc(Br)cc2)cc1)C(=O)NO [Example 315] : ____
Result block: > 50 µg/mL

Query block: Reported MIC, compound CCc1ccc(-c2ccc(C(=O)N[C@H](C(=O)NO)[C@@H](C)N)cc2)cc1 [Example 779] : ____
Result block: 6.25 to 50 µg/mL

Query block: For the compound C[C@@H](O)[C@H](NC(=O)c1ccc(C#CC#Cc2ccc(NC(=O)CNc3ccccc3)cc2)cc1)C(=O)NO [Example 777] , what MIC is on record?
Result block: < 6.25 µg/mL

* * *

test system: Stenotrophomonas maltophilia; test: MIC vs non-fermenting organisms: Stenotrophomonas maltophilia; type: cell-based; conditions: Stenotrophomonas maltophilia, S. malt.; MIC key class; read-out: MIC
# MIC per record follows

{"Query Smiles": "C[C@@H](O)[C@H](NC(=O)c1ccc(-c2ccc(Br)cc2)cc1)C(=O)NO", "MIC": "< 6.25 µg/mL"}
{"Query Smiles": "C[C@@H](O)[C@H](NC(=O)c1ccc(C#CC#Cc2ccccc2)cc1)C(=O)NO", "MIC": "6.25 to 50 µg/mL"}
{"Query Smiles": "C[C@@H](O)[C@H](NC(=O)c1ccc(C#CC#Cc2ccc(NC(=O)CNc3ccccn3)cc2)cc1)C(=O)NO", "MIC": "> 50 µg/mL"}

Field: next compound
Query block: # MIC lookup, item "NC[C@H](NC(=O)c1ccc(C#Cc2ccc(NC(=O)CNC3CC3)cc2)cc1)C(=O)NO"
Result block: > 50 µg/mL

* * *

Recorded MIC by entry
tested on: non-CF clinical isolates of P. aeruginosa; assay: MIC vs non-CF clinical isolates of P. aeruginosa; assay type: cell-based; settings: Pseudomonas aeruginosa, P. aer psa-6b; comparator antibacterials
Give just the number in µg/mL; leave the unit off.

Query block: Could you tell me which MIC is on file for CO/N=C(\C(=O)N[C@@H]1C(=O)N2C(C(=O)[O-])=C(C[N+]3(C)CCCC3)CS[C@H]12)c1csc(N)n1 [Cefepime, cefepime, reference compound] ?
Result block: 8

Query block: Recorded MIC for C[C@@H](O)[C@H]1C(=O)N2C(C(=O)O)=C(S[C@@H]3CN[C@H](C(=O)N(C)C)C3)[C@H](C)[C@H]12 [Meropenem, meropenem, reference compound] , please?
Result block: 0.25

Query block: Form field: reported MIC of NC[C@H]1O[C@H](O[C@H]2[C@H](O)[C@@H](O[C@H]3O[C@H](CO)[C@@H](O)[C@H](N)[C@H]3O)[C@H](N)C[C@@H]2N)[C@H](N)C[C@@H]1O [Tobramycin, tobramycin, reference compound]
Result block: 2

Query block: Return reported MIC; argument: CC(C)(O/N=C(\C(=O)N[C@@H]1C(=O)N2C(C(=O)[O-])=C(C[n+]3ccccc3)CS[C@H]12)c1csc(N)n1)C(=O)O [Ceftazidime, ceftazidime, reference compound]
Result block: 64

Query block: Looking for the measured MIC of C[C@H]1[C@H](NC(=O)/C(=N\OC(C)(C)C(=O)O)c2csc(N)n2)C(=O)N1S(=O)(=O)O [Aztreonam, aztreonam, reference compound] , can you help?
Result block: 32

* * *

tested on: Pseudomonas aeruginosa cystic fibrosis isolate 2196; assay: MIC vs cystic fibrosis isolate of P. aeruginosa 2196 (resistant to ciprofloxacin); type: cell-based; conditions: strain 2196, Cipro R, LpxC inhibitors, MIC key class
Listing: MIC of selected molecules

{"Molecule": "C[C@@H](O)[C@H](NC(=O)c1ccc(-c2ccc(Br)cc2)cc1)C(=O)NO [Example 315]", "MIC": "< 6.25 µg/mL"}

Query block: Which MIC is listed for C[C@@H](N)[C@H](NC(=O)c1ccc(C#Cc2ccccc2)cc1)C(=O)NO [Example 13] ?
Result block: < 6.25 µg/mL

Query block: So what does the record say about MIC for NC[C@H](NC(=O)c1ccc(C#Cc2ccccc2)cc1)C(=O)NO [Example 366] ?
Result block: < 6.25 µg/mL

Query block: Entry NC[C@H](NC(=O)c1ccc(C#CC#Cc2ccccc2)cc1)C(=O)NO [Example 481] : reported MIC = ?
Result block: < 6.25 µg/mL

Query block: Any idea what its MIC is? The molecule is NC[C@H](NC(=O)c1ccc(C#Cc2ccc(NC(=O)CNC3CC3)cc2)cc1)C(=O)NO [Example 516]
Result block: < 6.25 µg/mL

Query block: Quick one: MIC for CCc1ccc(-c2ccc(C(=O)N[C@@H](CN)C(=O)NO)cc2)cc1 [Example 280] ?
Result block: 6.25 to 50 µg/mL

Query block: Any idea what MIC was measured for C[C@@H](O)[C@H](NC(=O)c1ccc(C#Cc2ccccc2)cc1)C(=O)NO [Example 12] ?
Result block: 6.25 to 50 µg/mL

* * *

system: Pseudomonas aeruginosa cystic fibrosis isolate 3317; assay: MIC vs cystic fibrosis isolate of P. aeruginosa 3317 (resistant to aztreonam); type: cell-based; conditions: strain 3317, Aztr. R, LpxC inhibitors, MIC key class
We begin with a simple list: items and their reported MIC.

Below, 2 compounds whose answers are already recorded.
{"Compound": "NC[C@H](NC(=O)c1ccc(C#CC#Cc2ccccc2)cc1)C(=O)NO [Example 481]", "Value Reported": "< 6.25 µg/mL"}
{"Compound": "C[C@@H](O)[C@H](NC(=O)c1ccc(-c2ccc(Br)cc2)cc1)C(=O)NO [Example 315]", "Value Reported": "< 6.25 µg/mL"}

Moving on to another compound below.
Query block: Fill in: MIC of C[C@@H](O)[C@H](NC(=O)c1ccc(C#CC#Cc2ccc(NC(=O)CNc3ccccc3)cc2)cc1)C(=O)NO [Example 777] is ___
Result block: < 6.25 µg/mL

* * *

Catalogue of compounds with associated MIC
test system: Escherichia coli; assay: MIC vs enteric organisms: Escherichia coli clinical isolates; format: cell-based; settings: Escherichia coli, E. coli 2788; MIC key class; read-out: MIC

Recorded results for 2 compounds are shown here.
{"Query Smiles": "C[C@@H](O)[C@H](NC(=O)c1ccc(-c2ccc(Br)cc2)cc1)C(=O)NO", "MIC": "< 6.25 µg/mL"}
{"Query Smiles": "C[C@@H](O)[C@H](NC(=O)c1ccc(C#CC#Cc2ccc(NC(=O)CNc3ccccc3)cc2)cc1)C(=O)NO", "MIC": "< 6.25 µg/mL"}

Query block: Using the record for "NC[C@H](NC(=O)c1ccc(C#Cc2ccc(NC(=O)CNC3CC3)cc2)cc1)C(=O)NO" , report its MIC.
Result block: 6.25 to 50 µg/mL

* * *

test system: Escherichia coli; experiment: MIC vs enteric organisms: Escherichia coli clinical isolates; assay type: cell-based; conditions: Escherichia coli, E. coli 2788; comparator antibacterials; read-out: MIC
Readout Type: MIC

{"Molecule": "CC(C)(O/N=C(\\C(=O)N[C@@H]1C(=O)N2C(C(=O)[O-])=C(C[n+]3ccccc3)CS[C@H]12)c1csc(N)n1)C(=O)O [Ceftazidime, ceftazidime, reference compound]", "Measured On": "Escherichia coli", "MIC": "0.25 mg/L"}
{"Molecule": "C[C@H]1[C@H](NC(=O)/C(=N\\OC(C)(C)C(=O)O)c2csc(N)n2)C(=O)N1S(=O)(=O)O [Aztreonam, aztreonam, reference compound]", "Measured On": "Escherichia coli", "MIC": "≤ 0.13 mg/L"}
{"Molecule": "CO/N=C(\\C(=O)N[C@@H]1C(=O)N2C(C(=O)[O-])=C(C[N+]3(C)CCCC3)CS[C@H]12)c1csc(N)n1 [Cefepime, cefepime, reference compound]", "Measured On": "Escherichia coli", "MIC": "≤ 0.13 mg/L"}

Here's the next entry for you.
Query block: Endpoint output: MIC of C[C@@H](O)[C@H]1C(=O)N2C(C(=O)O)=C(S[C@@H]3CN[C@H](C(=O)N(C)C)C3)[C@H](C)[C@H]12 [Meropenem, meropenem, reference compound] . Value?
Result block: ≤ 0.06 mg/L
